# experimental.target: Vitamin D3 receptor (Homo sapiens)
# Sequence (P11473 whole entry, the tested form may be a part): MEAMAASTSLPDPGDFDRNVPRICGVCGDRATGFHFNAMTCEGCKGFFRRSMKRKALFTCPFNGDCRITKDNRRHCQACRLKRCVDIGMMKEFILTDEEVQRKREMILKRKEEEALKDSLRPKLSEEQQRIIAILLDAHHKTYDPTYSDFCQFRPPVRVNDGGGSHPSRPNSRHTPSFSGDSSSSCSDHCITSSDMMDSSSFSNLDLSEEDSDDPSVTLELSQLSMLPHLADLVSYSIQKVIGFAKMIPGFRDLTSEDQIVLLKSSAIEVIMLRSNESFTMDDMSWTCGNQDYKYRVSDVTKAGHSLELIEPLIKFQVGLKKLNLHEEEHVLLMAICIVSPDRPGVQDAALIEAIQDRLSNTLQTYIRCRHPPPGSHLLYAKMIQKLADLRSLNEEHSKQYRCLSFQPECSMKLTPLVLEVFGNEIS
# procedure.text: Displacement of [3H]1alpha,25-dihydroxyvitamin D3 from human recombinant GST-tagged vitamin D3 receptor LBD expressed in Escherichia coli BL21 after 16 hrs
observation.type: IC50
Respond with a number, then the unit of measure.

For C=C1[C@H](O)CC(=C/C=C2\CCC[C@]3(C)[C@@H]([C@H](C)[C@@H](CC)CC(O)(CC)CC)CC[C@@H]23)C[C@H]1O the compound record lists IC50 as 0.38 nM

These entries and their values trace back to ChEMBL document CHEMBL2057157.
